Data provenance is patent US12435080B2.

Biological target: sGC enzyme (Homo sapiens, UniProt Q02108+Q02153)
Construct: incorporated into these cells detect cGMP formed by the compounds stimulating the sGC enzyme; host or cells: HEK293 cells stably expressing GloSensor 40F cGMP biosensor
Sequence (Q02153 whole entry): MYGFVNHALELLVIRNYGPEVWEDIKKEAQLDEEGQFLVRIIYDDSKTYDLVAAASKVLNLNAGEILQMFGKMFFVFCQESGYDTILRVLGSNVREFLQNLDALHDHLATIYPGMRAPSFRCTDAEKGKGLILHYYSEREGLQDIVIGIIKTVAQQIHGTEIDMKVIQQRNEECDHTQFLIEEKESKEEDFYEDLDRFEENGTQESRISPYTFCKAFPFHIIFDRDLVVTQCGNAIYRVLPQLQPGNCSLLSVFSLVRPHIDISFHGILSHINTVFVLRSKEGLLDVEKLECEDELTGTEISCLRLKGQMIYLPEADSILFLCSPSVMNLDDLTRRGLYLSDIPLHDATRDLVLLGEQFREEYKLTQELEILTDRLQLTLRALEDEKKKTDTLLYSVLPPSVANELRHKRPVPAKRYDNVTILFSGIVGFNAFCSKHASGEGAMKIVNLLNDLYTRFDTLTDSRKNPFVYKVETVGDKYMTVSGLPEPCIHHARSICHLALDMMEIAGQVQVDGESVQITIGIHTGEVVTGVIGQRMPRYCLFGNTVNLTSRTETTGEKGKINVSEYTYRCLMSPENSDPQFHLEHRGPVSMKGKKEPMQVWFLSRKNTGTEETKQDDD
Sequence (Q02108 whole entry): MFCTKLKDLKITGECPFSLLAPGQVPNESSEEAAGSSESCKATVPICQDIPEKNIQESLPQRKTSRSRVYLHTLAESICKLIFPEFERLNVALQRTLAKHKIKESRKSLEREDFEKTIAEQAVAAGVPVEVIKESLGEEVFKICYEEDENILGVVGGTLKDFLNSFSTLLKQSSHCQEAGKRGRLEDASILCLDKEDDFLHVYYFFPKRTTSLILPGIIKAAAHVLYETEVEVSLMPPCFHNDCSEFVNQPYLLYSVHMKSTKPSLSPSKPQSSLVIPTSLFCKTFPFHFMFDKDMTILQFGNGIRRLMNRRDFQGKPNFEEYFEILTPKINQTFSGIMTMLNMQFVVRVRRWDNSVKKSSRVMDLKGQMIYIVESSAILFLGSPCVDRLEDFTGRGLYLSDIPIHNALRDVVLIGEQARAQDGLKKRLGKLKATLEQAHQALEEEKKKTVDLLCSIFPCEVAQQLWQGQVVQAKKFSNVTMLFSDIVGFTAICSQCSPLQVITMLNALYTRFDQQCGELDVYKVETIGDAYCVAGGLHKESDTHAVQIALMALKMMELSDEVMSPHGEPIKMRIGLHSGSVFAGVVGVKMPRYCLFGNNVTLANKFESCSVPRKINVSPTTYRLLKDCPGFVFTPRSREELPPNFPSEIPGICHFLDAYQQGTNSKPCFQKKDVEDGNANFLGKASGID
Test: cGMP GloSensor cell-based assay, 384-well format
Details: HEK293 cells expressing GloSensor 40F cGMP; 10 μM DETA-NONOate; normalized to 30 μM Compound Y; compounds in Table IA; read-out: Glo-sensor AbsEC50
pEC50: −log10 of the molar value.
experimentalReadout: pEC50

# compound, experimentalReadout, endpointValue
rows = [
    ("Cc1ccc(Cn2nc(-c3nc(C(F)(F)F)n[nH]3)c3cccnc32)cc1 [Compound I-54]", "pEC50", "> 7.00"),
    ("Fc1ccccc1Cn1nc(-c2nc(C3CN(CC(F)(F)F)C3)n[nH]2)c2cccnc21 [Compound I-95]", "pEC50", "6.00 to 7.00"),
    ("Cc1ccc2c(-c3nc(C(F)(F)F)n[nH]3)nn(Cc3cccc(F)c3F)c2n1 [Compound I-85]", "pEC50", "> 7.00"),
    ("Fc1ccccc1Cn1nc(-c2nc(C3CCOCC3)n[nH]2)c2cccnc21 [Compound I-78]", "pEC50", "< 6.00"),
    ("Fc1ccccc1Cn1nc(-c2nc(C3CC3(F)F)n[nH]2)c2cccnc21 (stereo not shown) [Compound I-96]", "pEC50", "> 7.00"),
    ("N#Cc1n[nH]c(-c2nn(Cc3cccc(F)c3F)c3ncccc23)n1 [Compound I-92]", "pEC50", "> 7.00"),
    ("NC1(c2n[nH]c(-c3nn(Cc4ccccc4F)c4ncccc34)n2)COC1 [Compound I-79]", "pEC50", "< 6.00"),
    ("Cc1ncc(Cn2nc(-c3nc(C)n[nH]3)c3cccnc32)cn1 [Compound I-113]", "pEC50", "> 7.00"),
]

Exercise: Determine reported pEC50 for Fc1ccccc1Cn1nc(-c2nc(Cl)n[nH]2)c2cccnc21 [Compound I-47] ; test system: sGC enzyme (Homo sapiens, UniProt Q02108+Q02153).
Key: > 7.00

Exercise: Please look at O=C(N1CC(c2n[nH]c(-c3nn(Cc4ccccc4F)c4ncccc34)n2)C1)C(F)(F)F [Compound I-75] and tell me its recorded pEC50 on sGC enzyme (Homo sapiens, UniProt Q02108+Q02153).
Key: 6.00 to 7.00

Exercise: Give pEC50 only, for Cc1ncc(Cn2nc(-c3nc(C(F)(F)F)n[nH]3)c3cccc(Cl)c32)cn1 [Compound I-46] , using sGC enzyme (Homo sapiens, UniProt Q02108+Q02153) data.
Key: 6.00 to 7.00

Exercise: Give pEC50 only, for Fc1ccccc1Cn1nc(-c2nc(CCCCl)n[nH]2)c2cccnc21 [Compound I-69] , using sGC enzyme (Homo sapiens, UniProt Q02108+Q02153) data.
Key: 6.00 to 7.00

Exercise: Jot down pEC50 (sGC enzyme (Homo sapiens, UniProt Q02108+Q02153)) of FC(F)(F)c1n[nH]c(-n2nc(Cc3ccccc3)c3ncccc32)n1 [Compound I-128] .
Key: 6.00 to 7.00

Exercise: Name the recorded pEC50 of COc1n[nH]c(-c2nn(Cc3ccccc3F)c3ncccc23)n1 [Compound I-82] , assay system sGC enzyme (Homo sapiens, UniProt Q02108+Q02153).
Key: 6.00 to 7.00

Exercise: State pEC50 on sGC enzyme (Homo sapiens, UniProt Q02108+Q02153). Entry: Fc1cncc(Cn2nc(-c3nc(C(F)(F)F)n[nH]3)c3cccnc32)c1 [Compound I-1]
Key: > 7.00

Exercise: Given Fc1ccccc1Cc1nn(-c2nc(C(F)F)n[nH]2)c2cccnc12 [Compound I-101] , report its pEC50 on sGC enzyme (Homo sapiens, UniProt Q02108+Q02153).
Key: > 7.00

Exercise: Write down the reported pEC50 (system: sGC enzyme (Homo sapiens, UniProt Q02108+Q02153)) of C=C(C)c1n[nH]c(-c2nn(Cc3ccccc3F)c3ncccc23)n1 [Compound I-55]
Key: 6.00 to 7.00

Exercise: Give pEC50 only, for Fc1ccccc1Cc1nn(-c2nc(C(F)(F)F)n[nH]2)c2cccnc12 [Compound I-31] , using sGC enzyme (Homo sapiens, UniProt Q02108+Q02153) data.
Key: 6.00 to 7.00

Exercise: Please tell me the measured pEC50 for COCc1n[nH]c(-c2nn(Cc3ccccc3F)c3ncccc23)n1 [Compound I-112] ; system: sGC enzyme (Homo sapiens, UniProt Q02108+Q02153).
Key: 6.00 to 7.00

Exercise: Look up sGC enzyme (Homo sapiens, UniProt Q02108+Q02153) data: pEC50 of Fc1n[nH]c(-c2nn(Cc3ccccc3F)c3ncccc23)n1 [Compound I-45] , then report it.
Key: 6.00 to 7.00

Exercise: Please respond with reported pEC50 (system sGC enzyme (Homo sapiens, UniProt Q02108+Q02153)) for Cc1ccc2c(-c3nc(C(F)(F)F)n[nH]3)nn(Cc3ccccc3F)c2n1 [Compound I-50] .
Key: > 7.00

Exercise: Give the observed pEC50 of Fc1ccccc1Cn1nc(-c2nc(C3CC(F)(F)C3)n[nH]2)c2cccnc21 [Compound I-77] for sGC enzyme (Homo sapiens, UniProt Q02108+Q02153).
Key: 6.00 to 7.00

* * *

Molecular target: sGC enzyme (Homo sapiens, UniProt Q02108+Q02153)
Construct: incorporated into these cells detect cGMP formed by the compounds stimulating the sGC enzyme; host or cells: HEK293 cells stably expressing GloSensor 40F cGMP biosensor
Assay: cGMP GloSensor cell-based assay, 384-well format
Settings: HEK293 cells expressing GloSensor 40F cGMP; 10 μM DETA-NONOate; normalized to 30 μM Compound Y; compounds in Table IA; read-out: Glo-sensor AbsEC50
Source text: Human embryonic kidney cells (HEK293) cells expressing GloSensor™ 40F cGMP (Part No: CS182801, Promega) were used to evaluate the activity of test compounds. The luminescent biosensors (engineered luciferase) that were incorporated into these cells detect cGMP formed by the compounds stimulating the sGC enzyme and emit luminescence. […]
pEC50: −log10 of the molar value.
experimentalReadout: pEC50

Guide cases for pEC50, answers given:
# compound, pEC50
records = [
    ("CC1(c2n[nH]c(-c3nn(Cc4ccccc4F)c4ncccc34)n2)CC1(F)F (stereo not drawn)", "6.00 to 7.00"),
    ("Fc1cccc(Cn2nc(-c3nc(Cl)n[nH]3)c3cccnc32)c1F", "> 7.00"),
    ("Fc1ccccc1Cn1nc(-c2nc(C(F)(F)F)n[nH]2)c2cnccc21", "< 6.00"),
    ("Fc1cnc2c(c1)c(-c1nc(C(F)(F)F)n[nH]1)nn2Cc1ccccc1F", "> 7.00"),
    ("OCc1n[nH]c(-c2nn(Cc3ccccc3F)c3ncccc23)n1", "> 7.00"),
]

Exercise: Return value of pEC50 for input FCCN1CC(c2n[nH]c(-c3nn(Cc4ccccc4F)c4ncccc34)n2)C1 , no commentary.
Key: 6.00 to 7.00

Exercise: Respond only with pEC50 recorded for CCC(=O)c1n[nH]c(-c2nn(Cc3ccccc3F)c3ncccc23)n1
Key: < 6.00

Exercise: Respond only with pEC50 recorded for CN(C)c1n[nH]c(-c2nn(Cc3ccccc3F)c3ncccc23)n1
Key: 6.00 to 7.00

Exercise: Item Fc1cccc(Cc2nn(-c3nc(C(F)(F)F)n[nH]3)c3cccnc23)c1F : provide pEC50
Key: > 7.00

Exercise: Please give measured pEC50 of the following entry: CC(F)(F)c1n[nH]c(-c2nn(Cc3ccccc3F)c3ncccc23)n1
Key: > 7.00

Exercise: Note pEC50 for the compound shown: FCc1n[nH]c(-c2nn(Cc3ccccc3F)c3ncccc23)n1
Key: > 7.00

Exercise: Provide one value: measured pEC50 of Cc1ncc(Cn2nc(-c3nc(C(F)(F)F)n[nH]3)c3ncccc32)cn1
Key: < 6.00

* * *

Target: sGC enzyme (Homo sapiens, UniProt Q02108+Q02153)
Construct: incorporated into these cells detect cGMP formed by the compounds stimulating the sGC enzyme; host or cells: HEK293 cells stably expressing GloSensor 40F cGMP biosensor
Assay: cGMP GloSensor cell-based assay, 384-well format
Settings: HEK293 cells expressing GloSensor 40F cGMP; 10 μM DETA-NONOate; normalized to 30 μM Compound Y; compounds in Table IA; read-out: Glo-sensor AbsEC50
pEC50: −log10 of the molar value.
experimentalReadout: pEC50

Consider the following illustrative entries.
# compound, endpointValue
data = [
    ("Fc1ccccc1Cn1nc(-c2nc(C3(C(F)(F)F)CC3)n[nH]2)c2cccnc21 [Compound I-59]", "6.00 to 7.00"),
    ("CC(C)(C)OC(=O)NC1(c2n[nH]c(-c3nn(Cc4ccccc4F)c4ncccc34)n2)COC1 [Compound I-76]", "6.00 to 7.00"),
    ("Fc1cccc(Cc2nn(-c3nc(C(F)F)n[nH]3)c3cccnc23)c1F [Compound I-127]", "6.00 to 7.00"),
    ("Fc1cccc(Cn2nc(-c3nc(C(F)F)n[nH]3)c3cccnc32)c1F [Compound I-67]", "> 7.00"),
    ("Cc1ncc(Cn2nc(-c3nc(C(F)(F)F)n[nH]3)c3ccc(Cl)cc32)cn1 [Compound I-22]", "> 7.00"),
]

Exercise: Identify measured pEC50 obtained with sGC enzyme (Homo sapiens, UniProt Q02108+Q02153) for Fc1ccc(Cn2nc(-c3nc(C(F)(F)F)n[nH]3)c3cccnc32)cc1 [Compound I-53] .
Key: > 7.00

Exercise: For sGC enzyme (Homo sapiens, UniProt Q02108+Q02153), give the measured pEC50 of the entry Fc1ccc(F)c(Cc2nn(-c3nc(C(F)F)n[nH]3)c3cccnc23)c1 [Compound I-131]
Key: > 7.00
